- TARGET SYSTEM: UniProt:P19099
- PROCEDURE SUMMARY: Inhibition of human CYP11B2 expressed in Schizosaccharomyces pombe at 500 nM
EXPERIMENTAL ENDPOINT: inhibition at 0.5 µM (%)
Give bare numbers, in %.

These solved cases illustrate the format of a correct answer.
COc1ccc2c(c1)CCC(c1cccnc1)=C2: 98
C(=C/c1cccnc1)/c1ccccc1: 54
CCC1CC(c2cccnc2)=Cc2ccccc21 (stereo unspecified): 20
COc1ccc2c(c1)CCC(c1ccncc1)=C2: 15
C1=C(n2ccnc2)Cc2ccccc21: 33

Exam item: Can you look up the measured inhibition at 0.5 µM of C(=C\c1cccnc1)/c1ccccc1 for me?
Marked response: 25

----------
- TARGET SYSTEM: UniProt:P15538
- Sequence (P15538 whole entry): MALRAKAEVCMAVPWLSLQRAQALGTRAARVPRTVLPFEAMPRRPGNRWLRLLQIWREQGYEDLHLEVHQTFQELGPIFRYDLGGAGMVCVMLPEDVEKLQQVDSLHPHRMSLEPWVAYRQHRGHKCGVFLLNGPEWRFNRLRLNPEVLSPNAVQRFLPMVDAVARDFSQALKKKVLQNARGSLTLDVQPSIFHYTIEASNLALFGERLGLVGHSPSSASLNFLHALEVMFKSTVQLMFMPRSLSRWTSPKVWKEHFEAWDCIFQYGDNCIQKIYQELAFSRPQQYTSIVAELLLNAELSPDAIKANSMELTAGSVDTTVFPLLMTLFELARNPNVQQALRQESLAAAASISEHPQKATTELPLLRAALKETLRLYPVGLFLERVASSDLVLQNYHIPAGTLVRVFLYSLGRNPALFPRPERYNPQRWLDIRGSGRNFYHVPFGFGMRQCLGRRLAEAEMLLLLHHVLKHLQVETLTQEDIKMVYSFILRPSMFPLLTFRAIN
- PROCEDURE SUMMARY: Inhibition of human CYP11B1 expressed in V79 11B1 cells
EXPERIMENTAL ENDPOINT: pIC50
Numbers only, as −log10 of the molar value.

Exam item: pIC50 lookup needed for C(=C/c1cccnc1)/c1ccccc1 , thanks.
Marked response: 6.54

----------
- PROCEDURE SUMMARY: Half life in rat liver microsome
- Assay type: ADME
- COND: liver microsomes
EXPERIMENTAL ENDPOINT: half-life (h)
One number for each entry, in h.

Exam item: Give the measured half-life of COc1ccc2c(c1)CCC(c1cccnc1)=C2 .
Marked response: 1.12

----------
Target chain: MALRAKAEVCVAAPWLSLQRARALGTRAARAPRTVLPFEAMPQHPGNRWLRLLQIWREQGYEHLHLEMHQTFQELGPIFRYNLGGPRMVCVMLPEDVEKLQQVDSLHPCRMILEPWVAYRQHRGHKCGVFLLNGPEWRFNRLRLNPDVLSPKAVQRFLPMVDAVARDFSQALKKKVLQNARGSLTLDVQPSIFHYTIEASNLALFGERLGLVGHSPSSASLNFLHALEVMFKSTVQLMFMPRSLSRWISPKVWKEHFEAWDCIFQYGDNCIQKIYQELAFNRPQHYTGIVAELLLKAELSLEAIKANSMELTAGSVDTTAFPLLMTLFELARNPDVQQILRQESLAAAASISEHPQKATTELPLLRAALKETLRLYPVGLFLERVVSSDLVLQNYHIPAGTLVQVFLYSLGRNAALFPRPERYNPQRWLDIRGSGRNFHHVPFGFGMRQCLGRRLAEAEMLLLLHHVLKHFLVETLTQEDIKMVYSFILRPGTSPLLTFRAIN
EXPERIMENTAL ENDPOINT: pIC50
One number for each entry, as −log10 of the molar value.

# example entries with known answers
C1=C(n2ccnc2)Cc2ccccc21: 6.35
COc1ccc2c(c1)CCC(n1ccnc1)=C2: 6.39
COc1ccc2c(c1)C=C(c1cccnc1)CC2: 7.35

Shift focus to the following entry.
Exam item: Can you look up the measured pIC50 of C(=C/c1cccnc1)/c1ccccc1 for me?
Marked response: 6.13
